- measurement.notes: Pharmacokinetic test after intragastric administration
- Format: in vivo
- stated.conditions: Sprague-Dawley, mouse, plasma, po; SD mice, 5 mg/kg intragastric; read-out: half life (T1/2, h) (converted)
measured.attribute: half-life (h)

Observe how each entry below is paired with its result.
compound	half-life [h]
N#Cc1cnc2[nH]ccc2c1N[C@H]1C[C@@H](NS(=O)(=O)CCC(F)(F)F)C1	4.23
CCCS(=O)(=O)N[C@H]1C[C@@H](N(C)c2c(C#N)cnc3[nH]ccc23)C1	2.11
CC(C)c1nsc(NC(=O)N2C[C@H]3C[C@H](N(C)c4c(C#N)cnc5[nH]ccc45)C[C@H]3C2)n1	2.47
CN(c1c(C#N)cnc2[nH]ccc12)[C@H]1C[C@@H]2CN(C(=O)Nc3ccc(Cl)c(C(F)(F)F)c3)C[C@@H]2C1	4.67
CN(c1c(C#N)cnc2[nH]ccc12)[C@H]1C[C@@H](NS(=O)(=O)CCC(F)(F)F)C1	5.11

[A] CC[C@@H]1CN(C(=O)NCC(F)(F)F)CC1Nc1c(C#N)cnc2[nH]ccc12 (stereo partly shown)
[B] CN(c1c(C#N)cnc2[nH]ccc12)[C@H]1C[C@@H]2CN(C(=O)NCC(F)(F)F)C[C@@H]2C1
Which numeric half-life is bigger, that of A or that of B ? Refer to your chosen entry by its label in the reply.
B
(B: 3.11 h, A: 2.13 h)

Measured values drawn from patent US12398141B2 for this set.
